Molecular target: T1, 4H949-bH
T1 chain: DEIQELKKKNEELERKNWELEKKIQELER
Assay: two-hybrid library CCNG1;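 further: natural log of median RNA to DNA barcode read ratio; higher means stronger binding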
observable: interaction score

As a guide, the following entries are already answered.
binder="DEIQELKKKNEELERKNWELEKKIQELER [4H949-bH]" observable="interaction score" numeric_value=0.634
binder="DKIQELKKKNEELKRKIWELEKEIQELER [4H3041-bH]" observable="interaction score" numeric_value=-0.161
binder="DEIQELKKKNEELERKIWELEKENQELKR [4H932-bH]" observable="interaction score" numeric_value=-0.517
binder="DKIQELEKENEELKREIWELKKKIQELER [4H2253-bH]" observable="interaction score" numeric_value=-0.427
binder="DKNQELEKKIEELERKNWELEKKIQELER [4H3381-bH]" observable="interaction score" numeric_value=0.43
binder="DEIQELEKKIEELEREIWELEKKNQELKR [4H264-bH]" observable="interaction score" numeric_value=-0.764
binder="DKIQELKKKIEELKRKNWELEKENQELER [4H2931-bH]" observable="interaction score" numeric_value=-0.384
binder="DEIQELEKKIEELKRENWELKKKIQELER [4H349-bH]" observable="interaction score" numeric_value=-0.023
binder="DEIQELEKEIEELERKNWELEKKNQELKR [4H56-bH]" observable="interaction score" numeric_value=-1.15
binder="DKIQELKKEIEELERENWELKKEIQELER [4H2585-bH]" observable="interaction score" numeric_value=-0.693

(P) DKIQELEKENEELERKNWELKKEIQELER [4H2233-bH]
(Q) DEIQELKKENEELERKIWELKKENQELER [4H683-bH]
Prompt: Lab note: check whether P or Q has the lower measured interaction score. Lab note: record the label of whichever item you select.
Response: P
(P: -0.96, Q: -0.385)

(a) DKIQELKKKIEELERKIWELKKENQELER [4H2859-bH]
(b) DKIQELEKKNEELKRENWELEKKIQELKR [4H2518-bH]
Prompt: Could you kindly indicate whether a or b has the higher interaction score value? Lab note: record the label of whichever item you select.
Response: b
(b: 0.12, a: -1.01)

Where do the numbers come from? From paper PMC10397247.
